# Target Desc: recombinant full length HPK-1 enzyme (Homo sapiens (Human), UniProt Q92918)
# Sequence (Q92918 whole entry, species assumed): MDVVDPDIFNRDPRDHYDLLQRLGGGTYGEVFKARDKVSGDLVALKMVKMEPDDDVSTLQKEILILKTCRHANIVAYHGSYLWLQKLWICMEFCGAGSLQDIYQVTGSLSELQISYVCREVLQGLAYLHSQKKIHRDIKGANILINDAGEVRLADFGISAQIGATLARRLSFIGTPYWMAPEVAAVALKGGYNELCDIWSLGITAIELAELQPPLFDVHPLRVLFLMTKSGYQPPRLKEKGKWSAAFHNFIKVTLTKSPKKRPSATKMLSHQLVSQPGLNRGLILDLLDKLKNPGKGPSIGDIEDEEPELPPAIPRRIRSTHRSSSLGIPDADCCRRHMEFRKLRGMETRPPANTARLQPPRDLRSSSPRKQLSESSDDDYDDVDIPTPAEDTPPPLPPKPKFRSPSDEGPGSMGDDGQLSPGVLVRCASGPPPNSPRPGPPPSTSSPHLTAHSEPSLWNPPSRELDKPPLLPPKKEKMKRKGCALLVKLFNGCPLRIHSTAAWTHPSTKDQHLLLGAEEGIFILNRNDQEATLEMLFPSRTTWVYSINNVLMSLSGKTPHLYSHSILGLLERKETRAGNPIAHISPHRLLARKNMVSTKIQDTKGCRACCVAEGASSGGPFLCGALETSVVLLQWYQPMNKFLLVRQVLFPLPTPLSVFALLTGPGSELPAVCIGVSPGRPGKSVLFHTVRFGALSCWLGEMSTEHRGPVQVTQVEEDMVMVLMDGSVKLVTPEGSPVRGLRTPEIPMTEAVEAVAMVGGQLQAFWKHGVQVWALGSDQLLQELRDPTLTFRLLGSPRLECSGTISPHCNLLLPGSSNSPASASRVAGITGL
# Measurement Description: HPK-1 biochemical enzyme assay (ADP-Glo kinase inhibition)
# Condition Set: recombinant full length HPK-1 6.8 nM, 10 μM ATP, 12.5 μM MBP, 30 mins at 25° C.

[
  {
    "Molecule": "Cc1c(Nc2cc[nH]c(=O)c2C(=O)Nc2ccc(N3CCN(C(=O)CC4CC4)CC3)cc2)cnc2c1NCCO2",
    "Target Desc": "recombinant full length HPK-1 enzyme (Homo sapiens (Human), UniProt Q92918)",
    "IC50": "≤ 10 nM"
  },
  {
    "Molecule": "Cc1c(Nc2cc[nH]c(=O)c2C(=O)Nc2ccc(N3CCN(C4(C)COC4)CC3)cc2)cnc2c1NCCO2",
    "Target Desc": "recombinant full length HPK-1 enzyme (Homo sapiens (Human), UniProt Q92918)",
    "IC50": "10 to 100 nM"
  },
  {
    "Molecule": "COCCN1CCC(c2ccc(NC(=O)c3c(Nc4cnc5c(c4C)NCCO5)cc[nH]c3=O)cc2)CC1",
    "Target Desc": "recombinant full length HPK-1 enzyme (Homo sapiens (Human), UniProt Q92918)",
    "IC50": "10 to 100 nM"
  },
  {
    "Molecule": "Cc1c(Nc2cc[nH]c(=O)c2C(=O)Nc2ccc(N3CCN4CCC[C@H]4C3)cc2)cnc2c1NCCO2",
    "Target Desc": "recombinant full length HPK-1 enzyme (Homo sapiens (Human), UniProt Q92918)",
    "IC50": "≤ 10 nM"
  },
  {
    "Molecule": "Cc1c(Nc2cc[nH]c(=O)c2C(=O)Nc2ccc(N3CCN(C)CC3)c(F)c2)cnc2c1NCC(C)O2 (stereo not drawn)",
    "Target Desc": "recombinant full length HPK-1 enzyme (Homo sapiens (Human), UniProt Q92918)",
    "IC50": "10 to 100 nM"
  },
  {
    "Molecule": "Cc1cc(NC(=O)c2c(Nc3cnc4c(c3C)NCCO4)cc[nH]c2=O)ccc1N1CCN(C2CC2)CC1",
    "Target Desc": "recombinant full length HPK-1 enzyme (Homo sapiens (Human), UniProt Q92918)",
    "IC50": "10 to 100 nM"
  },
  {
    "Molecule": "Cc1c(Nc2cc[nH]c(=O)c2C(=O)Nc2ccc(N3CCN(C(=O)c4ccn[nH]4)CC3)cc2)cnc2c1NCCO2",
    "Target Desc": "recombinant full length HPK-1 enzyme (Homo sapiens (Human), UniProt Q92918)",
    "IC50": "≤ 10 nM"
  },
  {
    "Molecule": "Cc1c(Nc2cc[nH]c(=O)c2C(=O)Nc2ccc(N3CCN(CCN4CCOCC4)CC3)cc2)cnc2c1NCCO2",
    "Target Desc": "recombinant full length HPK-1 enzyme (Homo sapiens (Human), UniProt Q92918)",
    "IC50": "≤ 10 nM"
  },
  {
    "Molecule": "Cc1c(Nc2cc[nH]c(=O)c2C(=O)Nc2ccc(S(C)(=O)=O)cc2)cnc2c1NCCO2",
    "Target Desc": "recombinant full length HPK-1 enzyme (Homo sapiens (Human), UniProt Q92918)",
    "IC50": "10 to 100 nM"
  },
  {
    "Molecule": "Cc1c(Nc2cc[nH]c(=O)c2C(=O)Nc2ccc(N3CCN(C(C)C)CC3)cc2)cnc2c1NCC(C)O2 (stereo not drawn) [Example 404]",
    "Target Desc": "recombinant full length HPK-1 enzyme (Homo sapiens (Human), UniProt Q92918)",
    "IC50": "≤ 10 nM"
  },
  {
    "Molecule": "Cc1c(Nc2cc[nH]c(=O)c2C(=O)Nc2ccc3c(c2)CN(C)CC3)cnc2c1NCCO2",
    "Target Desc": "recombinant full length HPK-1 enzyme (Homo sapiens (Human), UniProt Q92918)",
    "IC50": "10 to 100 nM"
  },
  {
    "Molecule": "Cc1c(Nc2cc[nH]c(=O)c2C(=O)Nc2cnn(C3CCN(C)CC3)c2)cnc2c1NCC(C)O2 (stereo not drawn)",
    "Target Desc": "recombinant full length HPK-1 enzyme (Homo sapiens (Human), UniProt Q92918)",
    "IC50": "10 to 100 nM"
  },
  {
    "Molecule": "Cc1c(Nc2cc[nH]c(=O)c2C(=O)Nc2ccc(N3CCCC(N)C3)cc2)cnc2c1NCCO2 (stereo not drawn)",
    "Target Desc": "recombinant full length HPK-1 enzyme (Homo sapiens (Human), UniProt Q92918)",
    "IC50": "≤ 10 nM"
  },
  {
    "Molecule": "Cc1c(Nc2cc[nH]c(=O)c2C(=O)Nc2ccc(N3CCN(C(=O)C4CC4)CC3)cc2)cnc2c1NCCO2",
    "Target Desc": "recombinant full length HPK-1 enzyme (Homo sapiens (Human), UniProt Q92918)",
    "IC50": "≤ 10 nM"
  },
  {
    "Molecule": "Cc1c(Nc2cc[nH]c(=O)c2C(=O)Nc2ccc(N3CCN(C)CC3)c(CO)c2)cnc2c1NCC(C)O2 (stereo not drawn)",
    "Target Desc": "recombinant full length HPK-1 enzyme (Homo sapiens (Human), UniProt Q92918)",
    "IC50": "10 to 100 nM"
  }
]
